Tested on: DU-145
experiment summary: Cytotoxicity against human DU145 cells assessed as cell growth after 48 hrs by sulforhodamine B assay
Type: functional, cell-based
protocol conditions: du-145
experimental readout: IC50 (µM)

compound: C[C@H]1CC[C@@H]2[C@@H](OC(=O)[C@]23CC(c2c(Cl)cccc2Cl)N(c2ccccc2)O3)[C@]2(C)C(=O)C=C[C@@]12O (some centres not stated)
result: 6.3
//
compound: C[C@H]1CC[C@@H]2[C@@H](OC(=O)[C@]23CC(c2cccc(Cl)c2)N(c2ccccc2)O3)[C@]2(C)C(=O)C=C[C@@]12O (some centres not stated)
result: 6
//
compound: C[C@H]1CC[C@@H]2[C@@H](OC(=O)[C@]23CC(c2ccc(Br)cc2)N(c2ccccc2)O3)[C@]2(C)C(=O)C=C[C@@]12O (some centres not stated)
result: 4.2
//
compound: C[C@H]1CC[C@@H]2[C@@H](OC(=O)[C@]23CC(c2ccc(C#N)cc2)N(c2ccccc2)O3)[C@]2(C)C(=O)C=C[C@@]12O (some centres not stated)
result: 7
//
compound: C[C@H]1CC[C@@H]2[C@@H](OC(=O)[C@]23CC(c2c(F)c(F)c(F)c(F)c2F)N(c2ccccc2)O3)[C@]2(C)C(=O)C=C[C@@]12O (some centres not stated)
result: 6.1
//
compound: C[C@H]1CC[C@@H]2[C@@H](OC(=O)[C@]23CC(c2ccccc2Cl)N(c2ccccc2)O3)[C@]2(C)C(=O)C=C[C@@]12O (some centres not stated)
result: 4.1
//
compound: C[C@H]1CC[C@@H]2[C@@H](OC(=O)[C@]23CC(c2ccc(F)cc2)N(c2ccccc2)O3)[C@]2(C)C(=O)C=C[C@@]12O (some centres not stated)
result: 5
//
compound: C[C@H]1CC[C@@H]2[C@@H](OC(=O)[C@]23CC(c2ccc([N+](=O)[O-])cc2)N(c2ccccc2)O3)[C@]2(C)C(=O)C=C[C@@]12O (some centres not stated)
result: 6
//
compound: COc1ccc(C2C[C@@]3(ON2c2ccccc2)C(=O)O[C@@H]2[C@H]3CC[C@H](C)[C@]3(O)C=CC(=O)[C@@]23C)cc1Br (some centres not stated)
result: 5.4
//
compound: C[C@H]1CC[C@@H]2[C@@H](OC(=O)[C@]23CC(c2cccc(F)c2)N(c2ccccc2)O3)[C@]2(C)C(=O)C=C[C@@]12O (some centres not stated)
result: 8.1
//
compound: C[C@H]1CC[C@@H]2[C@@H](OC(=O)[C@]23CC(c2ccccc2)N(c2ccccc2)O3)[C@]2(C)C(=O)C=C[C@@]12O (some centres not stated)
result: 6.5
//
compound: C[C@H]1CC[C@@H]2[C@@H](OC(=O)[C@]23CC(c2c(F)cccc2F)N(c2ccccc2)O3)[C@]2(C)C(=O)C=C[C@@]12O (some centres not stated)
result: 9

* * *

System: PC-3
experiment summary: Cytotoxicity against human PC3 cells assessed as cell growth after 48 hrs by sulforhodamine B assay
Assay type: functional, cell-based
protocol conditions: Homo sapiens, PC-3, 48 h
pIC50: −log10 of the molar value.

compound: C[C@H]1CC[C@@H]2[C@@H](OC(=O)[C@]23CC(c2ccccc2F)=NO3)[C@]2(C)C(=O)C=C[C@@]12O
pIC50: 5.09
--
compound: COc1ccccc1N1C[C@]12C(=O)O[C@@H]1[C@H]2CC[C@H](C)[C@]2(O)C=CC(=O)[C@@]12C
pIC50: 4.28
--
compound: C[C@H]1CC[C@@H]2[C@@H](OC(=O)[C@]23CC(c2ccc(F)cc2)=NO3)[C@]2(C)C(=O)C=C[C@@]12O
pIC50: 4.57
--
compound: C=C1C(=O)O[C@@H]2[C@H]1CC[C@H](C)[C@]1(O)C=CC(=O)[C@@]21C [PARTHENIN]
pIC50: 4.39
--
compound: Cc1ccc(N2C[C@]23C(=O)O[C@@H]2[C@H]3CC[C@H](C)[C@]3(O)C=CC(=O)[C@@]23C)cc1
pIC50: 4.60
--
compound: Cc1ccc(C2C[C@@]3(ON2c2ccccc2)C(=O)O[C@@H]2[C@H]3CC[C@H](C)[C@]3(O)C=CC(=O)[C@@]23C)cc1 (some centres undefined)
pIC50: 5.07
--
compound: C[C@H]1CC[C@@H]2[C@@H](OC(=O)[C@]23CC(c2ccccc2Cl)N(c2ccccc2)O3)[C@]2(C)C(=O)C=C[C@@]12O (some centres undefined)
pIC50: 5.46
--
compound: C[C@H]1CC[C@@H]2[C@@H](OC(=O)[C@]23CC(c2c4ccccc4cc4ccccc24)=NO3)[C@]2(C)C(=O)C=C[C@@]12O
pIC50: 5.31
--
compound: C[C@H]1CC[C@@H]2[C@@H](OC(=O)[C@]23CC(c2cccc(Cl)c2)N(c2ccccc2)O3)[C@]2(C)C(=O)C=C[C@@]12O (some centres undefined)
pIC50: 5.09
--
compound: C[C@H]1CC[C@@H]2[C@@H](OC(=O)[C@]23CC(c2ccccc2[N+](=O)[O-])=NO3)[C@]2(C)C(=O)C=C[C@@]12O
pIC50: 4.43
--
compound: Cc1cccc(C2=NO[C@]3(C2)C(=O)O[C@@H]2[C@H]3CC[C@H](C)[C@]3(O)C=CC(=O)[C@@]23C)c1
pIC50: 4.18
--
compound: COc1ccc(N2C[C@]23C(=O)O[C@@H]2[C@H]3CC[C@H](C)[C@]3(O)C=CC(=O)[C@@]23C)cc1
pIC50: 4.92
--
compound: C[C@H]1CC[C@@H]2[C@@H](OC(=O)[C@]23CC(c2ccc(O)cc2)=NO3)[C@]2(C)C(=O)C=C[C@@]12O
pIC50: 4.70
--
compound: C[C@H]1CC[C@@H]2[C@@H](OC(=O)[C@]23CC(c2ccc(C#N)cc2)=NO3)[C@]2(C)C(=O)C=C[C@@]12O
pIC50: 4.49

* * *

experiment summary: Partition coefficient, log P of the compound
Assay type: physicochemical
protocol conditions: octanol/water
Listed molecules paired with reported logP
experimental readout: logP

molecule: C[C@H]1CC[C@@H]2[C@@H](OC(=O)[C@]23CC(c2ccc(C#N)cc2)=NO3)[C@]2(C)C(=O)C=C[C@@]12O
result: 1.17
--
molecule: COc1ccc(C2C[C@@]3(ON2c2ccccc2)C(=O)O[C@@H]2[C@H]3CC[C@H](C)[C@]3(O)C=CC(=O)[C@@]23C)cc1Br (mixture of isomers)
result: 3.98
--
molecule: Cc1cccc(C2=NO[C@]3(C2)C(=O)O[C@@H]2[C@H]3CC[C@H](C)[C@]3(O)C=CC(=O)[C@@]23C)c1
result: 1.86
--
molecule: Cc1ccc(C2=NO[C@]3(C2)C(=O)O[C@@H]2[C@H]3CC[C@H](C)[C@]3(O)C=CC(=O)[C@@]23C)cc1
result: 1.86
--
molecule: C[C@H]1CC[C@@H]2[C@@H](OC(=O)[C@]23CC(c2ccccc2Br)=NO3)[C@]2(C)C(=O)C=C[C@@]12O
result: 2.22
--
molecule: Cc1ccccc1N1C[C@]12C(=O)O[C@@H]1[C@H]2CC[C@H](C)[C@]2(O)C=CC(=O)[C@@]12C
result: 1.83
--
molecule: C[C@H]1CC[C@@H]2[C@@H](OC(=O)[C@]23CC(c2ccccc2)=NO3)[C@]2(C)C(=O)C=C[C@@]12O
result: 1.41
--
molecule: COc1ccc(C2C[C@@]3(ON2c2ccccc2)C(=O)O[C@@H]2[C@H]3CC[C@H](C)[C@]3(O)C=CC(=O)[C@@]23C)cc1 (mixture of isomers)
result: 3.25
--
molecule: C[C@H]1CC[C@@H]2[C@@H](OC(=O)[C@]23CC(c2ccccc2[N+](=O)[O-])=NO3)[C@]2(C)C(=O)C=C[C@@]12O
result: 1.37
--
molecule: C[C@H]1CC[C@@H]2[C@@H](OC(=O)[C@]23CC(c2ccc([N+](=O)[O-])cc2)=NO3)[C@]2(C)C(=O)C=C[C@@]12O
result: 1.37
--
molecule: COc1cc(C2=NO[C@]3(C2)C(=O)O[C@@H]2[C@H]3CC[C@H](C)[C@]3(O)C=CC(=O)[C@@]23C)ccc1O
result: 0.75
--
molecule: COc1ccc(C2=NO[C@]3(C2)C(=O)O[C@@H]2[C@H]3CC[C@H](C)[C@]3(O)C=CC(=O)[C@@]23C)cc1
result: 1.47
--
molecule: C[C@H]1CC[C@@H]2[C@@H](OC(=O)[C@]23CC(c2c(Cl)cccc2Cl)N(c2ccccc2)O3)[C@]2(C)C(=O)C=C[C@@]12O (mixture of isomers)
result: 4.45
--
molecule: C[C@H]1CC[C@@H]2[C@@H](OC(=O)[C@]23CC(c2c(F)cccc2F)N(c2ccccc2)O3)[C@]2(C)C(=O)C=C[C@@]12O (mixture of isomers)
result: 3.42
--
molecule: C[C@H]1CC[C@@H]2[C@@H](OC(=O)[C@]23CC(c2ccc(Cl)cc2)N(c2ccccc2)O3)[C@]2(C)C(=O)C=C[C@@]12O (mixture of isomers)
result: 3.87
--
molecule: C[C@H]1CC[C@@H]2[C@@H](OC(=O)[C@]23CC(c2ccc(F)cc2)=NO3)[C@]2(C)C(=O)C=C[C@@]12O
result: 1.57
--
molecule: C[C@H]1CC[C@@H]2[C@@H](OC(=O)[C@]23CC(c2cccc(F)c2)N(c2ccccc2)O3)[C@]2(C)C(=O)C=C[C@@]12O (mixture of isomers)
result: 3.35
--
molecule: COc1ccccc1N1C[C@]12C(=O)O[C@@H]1[C@H]2CC[C@H](C)[C@]2(O)C=CC(=O)[C@@]12C
result: 1.41
--
molecule: COc1cccc(C2C[C@@]3(ON2c2ccccc2)C(=O)O[C@@H]2[C@H]3CC[C@H](C)[C@]3(O)C=CC(=O)[C@@]23C)c1 (mixture of isomers)
result: 3.25
--
molecule: Cc1ccc(C2C[C@@]3(ON2c2ccccc2)C(=O)O[C@@H]2[C@H]3CC[C@H](C)[C@]3(O)C=CC(=O)[C@@]23C)cc1 (mixture of isomers)
result: 3.64
--
molecule: C[C@H]1CC[C@@H]2[C@@H](OC(=O)[C@]23CC(c2ccccc2F)=NO3)[C@]2(C)C(=O)C=C[C@@]12O
result: 1.57
--
molecule: C[C@H]1CC[C@@H]2[C@@H](OC(=O)[C@]23CC(c2c(F)c(F)c(F)c(F)c2F)N(c2ccccc2)O3)[C@]2(C)C(=O)C=C[C@@]12O (mixture of isomers)
result: 3.72
--
molecule: C[C@H]1CC[C@@H]2[C@@H](OC(=O)[C@]23CC(c2ccc(O)cc2)=NO3)[C@]2(C)C(=O)C=C[C@@]12O
result: 0.932
--
molecule: Cc1ccccc1C1C[C@@]2(ON1c1ccccc1)C(=O)O[C@@H]1[C@H]2CC[C@H](C)[C@]2(O)C=CC(=O)[C@@]12C (mixture of isomers)
result: 3.64
--
molecule: C[C@H]1CC[C@@H]2[C@@H](OC(=O)[C@]23CN3c2ccccc2)[C@]2(C)C(=O)C=C[C@@]12O
result: 1.38
